Recorded growth for the following molecules
Tested on: 786-0 renal
protocol_notes: NCI-60 one-dose screen, 48 h (100 = growth as untreated, 0 = no growth, -100 = all killed)
test_conditions: 10 µM unless noted
Experimental: Cells are grown in 96 well plates and exposed to the test compound for 48 hours. Compounds are tested at a single concentration, which is 10^-5 M for most compounds. The reported endpoint is percent growth (GI% or GIPRCNT), where numbers from 0 - 100% represent growth inhibition, and numbers from -100% - 0 represent cell death. For example, a value of 40 represents 60% growth inhibition. A value of 0 means no net growth occurred over the course of the experiment. […]
Compounds without any hit were thinned out: in the full panel of roughly 83,000, 20% have a hit. The source made the active and inactive calls. How the source made its calls: active means growth percent below 10; inactive means the rest.

Return reported growth; argument: CC(=O)O[C@H]1CC[C@@]2(C)[C@@H](CC[C@@H]3[C@@H]2CC(=O)[C@@]2(C)[C@H]3C[C@@H](C3CCCC3=O)[C@@H]2C(C)=O)C1 (stereo not given in full)
105% (inactive)

Entry under review: `CCOc1ccc(NC(=O)c2ccoc2COc2ccccc2)cc1` . Reported growth?
105% (inactive)

Item under review: `CC(=O)O[C@@H]1CCN2C(=O)N(C)c3ccccc3[C@@H]2C1` . Reported growth?
101% (inactive)

Please look up its growth: CN(C)CCCC1(c2ccc(F)cc2)OCc2cc(-c3ccc(C(F)(F)F)nc3)ccc21 (stereo not given)
72.7% (inactive)

Need growth of `O=C1C(=O)c2ccccc2C(O)=C1CCCc1ccc(C2CCCCC2)cc1` , thanks.
30.8% (inactive)

Which measured growth value corresponds to `O=C1/C(=C\C(Cl)=C/c2ccc([N+](=O)[O-])cc2)SC(=S)N1CCc1ccc(O)cc1` ?
-46.4% (active)

So what's the measured growth for this one? `Cn1cc(-c2csc(-c3cn(C(=O)OC(C)(C)C)c4ccc(Br)cc34)n2)c2cccnc21`
99.9% (inactive)

Fill blank: measured growth of the molecule CC(C)(C)c1[nH]nc2c1C(c1cc3ccccc3[nH]c1=O)Nc1cc(C(=O)OCc3ccccc3)ccc1N2 (stereo not given) is ____.
49.4% (inactive)

Returns the measured growth for the input molecule. Input: `COc1cccc(-c2nn(-c3ccccc3)cc2-c2ccnc(NCCNS(=O)(=O)c3ccc(C(F)(F)F)cc3)c2)c1`
3.75% (active)

Given the molecule `COC(=O)[C@]12CC[C@@H](C(/C=C/c3cccnc3)=N/O)[C@@H]1[C@H]1CC[C@@H]3[C@@]4(C)CC(=C/c5cccnc5)/C(=N/O)C(C)(C)[C@@H]4CC[C@@]3(C)[C@]1(C)CC2` , what is its reported growth?
67.8% (inactive)
